MEASUREMENT_PARAMETERS: in ethanol, 308.2 K
MEASUREMENT_NAME: solubility (mole fraction)

The reported value for Clc1ccccc1C(c1ccccc1)(c1ccccc1)n1ccnc1 in terms of solubility (mole fraction) is 0.025

* * *

MEASUREMENT_PARAMETERS: in water, 298.2 K
MEASUREMENT_NAME: solubility (mole fraction)
Numbers only.

The reported value for Clc1ccccc1C(c1ccccc1)(c1ccccc1)n1ccnc1 in terms of solubility (mole fraction) is 2.92e-08

* * *

MEASUREMENT_PARAMETERS: in water, 313.2 K
MEASUREMENT_NAME: solubility (mole fraction)
Numbers only.

The reported value for Clc1ccccc1C(c1ccccc1)(c1ccccc1)n1ccnc1 in terms of solubility (mole fraction) is 4.15e-08
